# AC50 per record follows
# assayedSystem: His6-TEV-PPARγ-(234-505) (Homo sapiens, UniProt P37231)
# Construct: The His6-TEV-PPARγ-(234-505) protein for assay was expressed and purified; TEV cleavage site (N); made in house
# Sequence (P37231 234-505): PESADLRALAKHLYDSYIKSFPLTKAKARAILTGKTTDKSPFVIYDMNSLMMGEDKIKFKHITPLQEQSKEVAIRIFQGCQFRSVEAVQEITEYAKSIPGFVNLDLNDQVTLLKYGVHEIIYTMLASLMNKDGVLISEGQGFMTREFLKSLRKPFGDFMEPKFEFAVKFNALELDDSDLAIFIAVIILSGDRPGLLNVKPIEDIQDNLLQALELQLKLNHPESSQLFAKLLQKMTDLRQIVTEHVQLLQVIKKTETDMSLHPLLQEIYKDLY
# procedureDetails: TR-FRET Assay to Measure Co-R Peptide Recruitment to PPARγ
# Format: biochemical
# conditionSummary: Co-R peptide (SMRT-ID2) recruitment; top final concentration 20 μM; read-out: TR-FRET i-Ag; AC50

compound: COc1cc(-c2cc(C(=O)N3CC[C@H](C(=O)NCC45CCC(O)(CC4)CC5)CC34CC4)n[nH]2)c(F)cn1 (single isomer, unassigned)
AC50 (nM): 3.5
--
compound: COc1cc(-c2cc(C(=O)N3CC[C@H](C(=O)NC4CCN(CC5(O)COC5)C4)CC34CC4)n[nH]2)c(F)cn1 (single isomer, unassigned) [Example 454-A]
AC50 (nM): 88.7
--
compound: COc1cc(-c2cc(C(=O)N3CC[C@H](C(=O)NCc4ncc(C(F)(F)F)cn4)CC34CC4)n[nH]2)c(F)cn1
AC50 (nM): 13.4
